Ref: patent US20240082222A1

- MEASUREMENT DESCRIPTION: Pharmacokinetic study in humans, sodium salt tablets, multiple dose (Example 3)
- Assay type: in vivo, human
- RECORDED CONDITIONS: human, plasma, oral, 200 mg, 200 mg Dose Group, tablet once daily, Day 21, Mean; read-out: Tmax
EXPERIMENTAL READOUT: Tmax
Just so you know, I need the unit written after the number.

Q: Data request, read-out Tmax, for O=C(Nc1nc(=O)n(Cc2ccc(Cl)cc2)s1)c1ccc(Cl)cc1 [Compound of formula II]
A: 10.9 h

====

- MEASUREMENT DESCRIPTION: Pharmacokinetic study in humans, sodium salt in enteric capsules, single and multiple dose (Example 2)
- Type: in vivo, human
- RECORDED CONDITIONS: human, plasma, oral, 800 mg, 800 mg Dose Group, capsules once daily, Day 18, Median; read-out: Tmax
EXPERIMENTAL READOUT: Tmax (h)
One number for each entry, in h.

Q: Data request, read-out Tmax, for O=C(Nc1nc(=O)n(Cc2ccc(Cl)cc2)s1)c1ccc(Cl)cc1
A: 9.99

====

- MEASUREMENT DESCRIPTION: Pharmacokinetic study in humans, sodium salt in enteric capsules, single and multiple dose (Example 2)
- Format: in vivo, human
- RECORDED CONDITIONS: human, plasma, oral, 400 mg, 400 mg Dose Group, capsules once daily, Day 18, Mean; read-out: Tmax
EXPERIMENTAL READOUT: Tmax (h)
Numbers only, in h.

Q: Data request, read-out Tmax, for O=C(Nc1nc(=O)n(Cc2ccc(Cl)cc2)s1)c1ccc(Cl)cc1
A: 8.31

====

- MEASUREMENT DESCRIPTION: Pharmacokinetic study in humans, sodium salt in enteric capsules, single and multiple dose (Example 2)
- Assay type: in vivo, human
- RECORDED CONDITIONS: human, plasma, oral, 800 mg, 800 mg Dose Group, capsules once daily, Day 18, individual subjects; read-out: Cmax
EXPERIMENTAL READOUT: Cmax (µg/mL)
Answers are plain numbers, in µg/mL.

Q: Data request, read-out Cmax, for O=C(Nc1nc(=O)n(Cc2ccc(Cl)cc2)s1)c1ccc(Cl)cc1
A: 87.3

====

- MEASUREMENT DESCRIPTION: Pharmacokinetic study in humans, sodium salt in enteric capsules, single and multiple dose (Example 2)
- Type: in vivo, human
- RECORDED CONDITIONS: human, plasma, oral, 200 mg, mean, dose group 200, capsule, Day 18; read-out: Tmax
EXPERIMENTAL READOUT: Tmax (h)
Give bare numbers, in h.

Q: Data request, read-out Tmax, for O=C(Nc1nc(=O)n(Cc2ccc(Cl)cc2)s1)c1ccc(Cl)cc1
A: 8.03

====

- MEASUREMENT DESCRIPTION: Pharmacokinetic study in humans, sodium salt in enteric capsules, single and multiple dose (Example 2)
- Type: in vivo, human
- RECORDED CONDITIONS: human, plasma, oral, 2000 mg, 2000 mg Dose Group, capsule once daily, Day 18, Mean; read-out: Clast
EXPERIMENTAL READOUT: concentration at 24 h (ng/mL)
Give bare numbers, in ng/mL.

Q: Data request, read-out concentration at 24 h, for O=C(Nc1nc(=O)n(Cc2ccc(Cl)cc2)s1)c1ccc(Cl)cc1
A: 44000

====

- MEASUREMENT DESCRIPTION: Pharmacokinetic study in humans, sodium salt in enteric capsules, single and multiple dose (Example 2)
- Type: in vivo, human
- RECORDED CONDITIONS: human, plasma, oral, 800 mg, 800 mg Dose Group, capsules once daily, Day 18, individual subjects
- Procedure: An open, randomised, parallel-group study in healthy volunteers (hereafter referred to as subjects) was conducted to evaluate the exposure of 4-chloro-N-[2-[(4-chlorophenyl)methyl]-3-oxo-1,2,4-thiadiazol-5-yl]benzamide after single and multiple dose administration of 3 dose levels of the sodium salt of 4-chloro-N-[2-[(4-chlorophenyl)methyl]-3-oxo-1,2,4-thiadiazol-5-yl]benzamide and to evaluate combination with dapagliflozin at steady state. […]
EXPERIMENTAL READOUT: AUC (µg·h/mL)
Answers are plain numbers, in µg·h/mL.

Q: Data request, read-out AUC, for O=C(Nc1nc(=O)n(Cc2ccc(Cl)cc2)s1)c1ccc(Cl)cc1
A: 1810
